Biological target: Amine oxidase [flavin-containing] A (Homo sapiens)
Sequence (P21397 whole entry): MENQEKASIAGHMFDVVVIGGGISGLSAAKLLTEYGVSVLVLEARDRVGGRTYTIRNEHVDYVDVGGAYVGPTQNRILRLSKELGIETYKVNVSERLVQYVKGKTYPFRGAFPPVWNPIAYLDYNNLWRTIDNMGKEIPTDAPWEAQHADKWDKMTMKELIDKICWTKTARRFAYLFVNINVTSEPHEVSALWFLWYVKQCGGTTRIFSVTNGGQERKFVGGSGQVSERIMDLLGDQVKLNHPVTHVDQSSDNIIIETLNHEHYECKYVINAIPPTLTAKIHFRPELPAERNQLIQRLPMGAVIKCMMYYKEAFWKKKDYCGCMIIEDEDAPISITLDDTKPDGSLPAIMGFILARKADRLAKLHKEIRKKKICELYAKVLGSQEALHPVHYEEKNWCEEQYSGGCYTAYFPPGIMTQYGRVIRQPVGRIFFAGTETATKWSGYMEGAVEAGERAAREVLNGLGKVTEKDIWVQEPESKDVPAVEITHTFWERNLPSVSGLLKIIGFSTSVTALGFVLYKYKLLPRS
Experiment: Inhibition of human recombinant MAO-A at 1 uM using tyramine as substrate preincubated with enzyme for 30 mins followed by incubation with substrate for 30 mins by Amplex Red reagent based fluorometric method relative to control
Settings: 0.5 h, time 60 min
Tick Y if inhibition at 1 µM is 40% or greater. Tick N if inhibition at 1 µM is less than 40%.

| Molecule | Group |
| --- | --- |
| COCCNc1nnc(SCC(=O)N(Cc2cccc([N+](=O)[O-])c2)c2ccc(F)cc2)s1 | Y |
| CCNc1nnc(SCC(=O)N(Cc2cccc([N+](=O)[O-])c2)c2ccc(F)cc2)s1 | Y |
| CC(C)Nc1nnc(SCC(=O)N(Cc2cccc([N+](=O)[O-])c2)c2ccc(F)cc2)s1 | Y |
| O=C(NCCN1CCOCC1)c1ccc(Cl)cc1 [MOCLOBEMIDE] | N |
| CC(C)CNc1nnc(SCC(=O)N(Cc2cccc([N+](=O)[O-])c2)c2ccc(F)cc2)s1 | Y |
